Molecular target: T1, MYOF peptide complexed with HLA-A*02:01 on T2 cells (human)
T1 construct: whole, on cells
Assay: flow cytometry, peptide-loaded T2 cells;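 also: binding of single-chain Fv antibody constructs, raised in XenoMouse, to peptide-pulsed T2 cells measured by flow cytometry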
observation-type: Signal/background
Form: value (number only, do not type unit).

# binder, Signal/background
rows = [
    ("18181-E2 (scFv, scFv in bacterial lysate, detected with anti-Flag M2) scFv: EVQLLESGPGLVKPSQTLSLTCTVSGDSISSNPYYWSWIRQHPGKGLEWIGYISHSGSTYYNPSLKSRVTISVDTSKNQFSLNLTSVTAADTAVYYCARDRLWFGVLNYYYGMDVWGLGTTVTVSSGGGGSGGGGSGGGGSELVMTQSPLSLPVTPGEPASISCRSSQSLLHSSGYNYLDWYLQKPGQSPQLLIYLGSNRASGVPDRFSGSGSGTDFTLKISKVEAEDVGVYYCMQALQTPRTFGQGTKVDIK", 1.1),
    ("18179-C1 (scFv, scFv in bacterial lysate, detected with anti-Flag M2) scFv: EVQLLESGAEVKKPGASVKVSCKASGYTFTRNGLSWVRQAPGQGLEWMGWISGYNGDTNYAQKLQGRGTMTTDTSTSTAYMELRSLRSDDTAVYYCARGRATFDYWGQGTLVTVSSGGGGSGGGGSGGGGSELVMTQSPSSLSASVGDRVTITCRASQGISNYLAWYQQKPGKVPKLLISAASTLQSGVPSRFSGSGSGTDFTLTISSLQPEDVATYYCQKYNSAPFTFGPGTKVDIK", 0.9),
]

Now, please, on to the next binder.
Look up Signal/background for this binder: 18181-C9 (scFv, scFv in bacterial lysate, detected with anti-Flag M2) scFv: EVQLLESGPGLVKPSQTLSLTCTVSGDSISSNPYYWSWIRQLPGKGLEWIGYISYSGSTFYNPSLKSRVTISVDTSKNQFSLNLTSVTAADTAVYYCARDRLWFGVLNYYYGMDVWGLGTTVTVSSGGGGSGGGGSGGGGSELVLTQSPLSLPVTPGEPASISCRSSQSLLHRNGYNYLDWYLQKPGQSPQLLIYLGSNRASGVPDRFSGSGSGTDFTLKISRVEAEDVGVYYCMQGLQTPFTFGPGTKVEIK
1.1
